reported-endpoint: melting point

Quick one: give measured melting point for "COc1ccc(Cn2cnc3c(-c4ccco4)nc(S(C)(=O)=O)nc32)cc1"
184 to 185 °C

Complete the entry with melting point for "COc1ccc(Cn2c(Cl)nc3c(-c4ccco4)ncnc32)cc1"
156 to 157 °C

Consider the molecule "C=Cc1nc(-c2ccco2)c2ncn(Cc3ccc(OC)cc3)c2n1" and give its recorded melting point.
94 to 95 °C

Specify measured melting point for "COc1ccc(Cn2c(-c3ccco3)nc3c(-c4ccco4)ncnc32)cc1" .
134 to 136 °C

Identify melting point associated with the molecule "COc1ccc(Cn2cnc3c(-c4ccco4)nc(I)nc32)cc1"
145 to 148 °C

Let me know recorded melting point for "CCc1nc(-c2ccco2)c2ncn(Cc3ccc(OC)cc3)c2n1" , thanks.
119 to 120 °C

Indicate the recorded melting point value for this molecule: "Clc1cccc(Cn2cnc3c(-c4ccco4)nc(Cl)nc32)c1"
196 to 198 °C

Look up melting point of "CSc1ccc(Cn2cnc3c(-c4ccco4)ncnc32)cc1" and report it.
157 to 159 °C

Answer with the recorded melting point for the molecule listed here: COC(c1ccccc1)n1cnc2c(-c3cccs3)nc(Cl)nc21 (stereo not shown)
183 to 185 °C

Respond only with melting point recorded for "COc1cc(Cn2cnc3c(-c4ccco4)ncnc32)cc(OC)c1OC"
195 to 196 °C

###

reported-endpoint: melting point

Guide cases for melting point, answers given:
FC(F)(F)Oc1cccc(Cn2cnc3c(-c4ccco4)ncnc32)c1 133 to 135 °C
COc1cccc(Cn2cnc3c(-c4ccco4)ncnc32)c1 138 to 139 °C
CCCOc1nc(-c2ccco2)c2ncn(Cc3ccc(OC)cc3)c2n1 119 °C

Note: attention shifts to another entry.
Give recorded melting point. "COc1ccc(Cn2cnc3c(-c4ccco4)nc([N+](=O)[O-])nc32)cc1"
182 to 183 °C

###

reported-endpoint: melting point

Provide melting point value for the following molecule: "COc1ccc(Cn2c(O)nc3c(-c4ccco4)ncnc32)cc1"
249 to 251 °C

Answer with reported melting point of "CN(C)c1ccc(Cn2cnc3c(-c4ccco4)ncnc32)cc1"
158 to 160 °C

Give the reported value of melting point for this record: "COc1ccc(Cn2cnc3c(-c4ccco4)ncnc32)cc1"
175 to 176 °C

Return melting point (reported value) for this molecule: "CCCCc1nc(-c2ccco2)c2ncn(Cc3ccc(OC)cc3)c2n1"
103 °C

###

Below, each of the molecules is paired with its reported melting point value.

molecule	reported-endpoint	assay-value
CCSc1nc(-c2ccco2)c2ncn(Cc3ccc(OC)cc3)c2n1	melting point	116 to 117 °C

Could you please provide reported melting point for COc1ccc(Cn2cnc3c(-c4ccco4)nc(SC)nc32)cc1 [Example 68] ? Thanks!
147 to 148 °C

Complete the entry with melting point for c1ccc(COc2ccc(Cn3cnc4c(-c5ccco5)ncnc43)cc2)cc1 [Example 40]
145 to 146 °C

Please give measured melting point of the following entry: FC(F)(F)c1ccc(Cn2cnc3c(-c4ccco4)ncnc32)cc1 [Example 30]
159 to 161 °C

Quickly give me recorded melting point for "COc1ccc(Cn2c(Cl)nc3c(-c4ccc(Cl)o4)ncnc32)cc1"
166 to 168 °C

Answer with reported melting point of CCOc1ccc(Cn2cnc3c(-c4ccco4)ncnc32)cc1 [Example 39]
165 to 166 °C
